Each record here notes measured IC50.
- assayed system: human recombinant ROCK II (Homo sapiens, UniProt O75116)
- Construct: recombinant human ROCK-II residues 11-552; His6 (N)
- Sequence (O75116 11-552): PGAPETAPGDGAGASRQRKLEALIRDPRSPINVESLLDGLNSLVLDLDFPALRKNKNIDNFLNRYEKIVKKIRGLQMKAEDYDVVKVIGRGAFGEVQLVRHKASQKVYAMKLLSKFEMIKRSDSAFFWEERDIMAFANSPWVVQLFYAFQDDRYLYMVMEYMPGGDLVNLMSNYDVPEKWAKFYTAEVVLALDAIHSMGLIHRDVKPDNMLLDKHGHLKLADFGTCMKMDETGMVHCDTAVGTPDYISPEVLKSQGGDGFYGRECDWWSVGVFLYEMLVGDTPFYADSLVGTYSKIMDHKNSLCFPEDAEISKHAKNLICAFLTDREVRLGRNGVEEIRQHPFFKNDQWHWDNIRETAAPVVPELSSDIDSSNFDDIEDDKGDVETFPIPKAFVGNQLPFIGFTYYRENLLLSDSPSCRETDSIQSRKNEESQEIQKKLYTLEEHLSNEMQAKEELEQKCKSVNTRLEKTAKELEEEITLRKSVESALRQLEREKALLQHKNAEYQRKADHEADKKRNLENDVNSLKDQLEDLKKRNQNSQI
- assay remarks: Determination of Rho Kinase Inhibition (ROCK II, Caliper peptide phosphorylation assay)
- applied conditions: 60 min incubation at 32° C., respective form (salt or free base) as obtained in the examples
Counter-ions that a name gives are not always drawn.

In [3]: df
Out[3]:
                                   molecule                            assayed_system  measured_property    value_measured
0  O=c1[nH]ccc2cc(N[C@@H]3CCCN(Cc4ccncc4)C3)ccc12  human recombinant ROCK II (Homo sapiens, UniProt O75116)               IC50  1000 to 10000 nM
1  O=c1[nH]ccc2cc([S+]([O-])C3CCNCC3)c(Cl)cc12 (stereo not shown) [Example 290, hydrochloride]  human recombinant ROCK II (Homo sapiens, UniProt O75116)               IC50  1000 to 10000 nM
2       CC(C)N1CC(Nc2ccc3c(=O)[nH]ccc3c2)C1  human recombinant ROCK II (Homo sapiens, UniProt O75116)               IC50  1000 to 10000 nM
3  CCCCN1CCC[C@@H](Nc2ccc3c(=O)[nH]ccc3c2)C1  human recombinant ROCK II (Homo sapiens, UniProt O75116)               IC50         ≤ 1000 nM
4  O=c1[nH]ccc2cc(N[C@H]3CCN(CC4CCCNC4)C3)ccc12 (stereo partly shown)  human recombinant ROCK II (Homo sapiens, UniProt O75116)               IC50  1000 to 10000 nM

Q: Query (molecule): `O=c1[nH]ccc2cc(NC3CN(Cc4ccccc4Cl)C3)ccc12` ; field requested: IC50
A: ≤ 1000 nM

Q: Request: `O=c1[nH]ccc2cc(NC3CN(CC4CC4)C3)ccc12`
A: 1000 to 10000 nM

Q: What about this molecule? `CC(C)CCN1CCC[C@@H](Nc2ccc3c(=O)[nH]ccc3c2)C1`
A: ≤ 1000 nM

Q: Param item: `O=c1[nH]ccc2cc(N[C@H]3CCN(Cc4cc(Cl)cc(Cl)c4)C3)ccc12`
A: 1000 to 10000 nM

Q: One more molecule: `O=c1[nH]ccc2cc(N[C@H]3CCN(CC4CC4)C3)ccc12`
A: ≤ 1000 nM

Q: Next up: O=c1[nH]ccc2cc(S(=O)(=O)C3CCNCC3)c(Cl)cc12 [Example 288, hydrochloride]
A: ≤ 1000 nM

Q: // query: Clc1cc2cnccc2cc1SC1CCCNC1 (racemic) [Example 269, hydrochloride]
A: ≤ 1000 nM

Q: Please do the same for CCCc1cc2cnccc2cc1SC1CCNCC1 [Example 277, hydrochloride] as well.
A: ≤ 1000 nM

Q: Param item: `O=c1[nH]ccc2cc(N[C@@H]3CCCN(Cc4ccccn4)C3)ccc12`
A: 1000 to 10000 nM

Q: Please give the result for Clc1cc2cnccc2cc1SCC1CCNCC1 [Example 279, hydrochloride] too.
A: 1000 to 10000 nM

Q: Could you do the same for `O=c1[nH]ccc2cc(N[C@@H]3CCCN(Cc4ccccc4)C3)ccc12` , please?
A: ≤ 1000 nM

Q: Param item: `Cn1cc(CN2CC[C@H](Nc3ccc4c(=O)[nH]ccc4c3)C2)cn1`
A: 1000 to 10000 nM

Q: How about `c1cc2cc(N[C@@H]3CCCN(CC4CCCCC4)C3)ccc2cn1` ?
A: 1000 to 10000 nM

Q: What do you have for `O=c1[nH]ccc2cc(N[C@@H]3CCCN(Cc4ccc5ccccc5c4)C3)ccc12` ?
A: ≤ 1000 nM
